organism: Homo sapiens; experiment: Ability of Compound (Agonist) to contract isolated human umbilical vein in presence of inhibitor.; format: functional
Residues, ends and D or L forms follow the SMILES beside them.
Please respond with reported pD2 for every item in the list.
One number for each entry.

Known pD2 results, listed for orientation:
* N=C(N)NCCC[C@H](NC(=O)CN1C(=O)[C@H](NC(=O)[C@H](CO)NC(=O)[C@H](Cc2cccs2)NC(=O)CNC(=O)[C@@H]2C[C@@H](O)CN2C(=O)[C@@H]2CCCN2C(=O)[C@H](CCCNC(=N)N)NC(=O)[C@@H](N)CCCCN)CSc2ccccc21)C(=O)O | 7.1
* N=C(N)NCCC[C@@H](N)C(=O)N[C@@H](CCCNC(=N)N)C(=O)N1CCC[C@H]1C(=O)N1C[C@H](O)C[C@H]1C(=O)NCC(=O)N[C@@H](Cc1cccs1)C(=O)N[C@@H](CO)C(=O)N[C@@H]1CSc2ccccc2N(CC(=O)N[C@@H](CCCNC(=N)N)C(=O)O)C1=O | 6.8
* Cc1ccc2c(c1)SC[C@@H](NC(=O)[C@H](CO)NC(=O)[C@H](Cc1cccs1)NC(=O)CNC(=O)[C@@H]1C[C@@H](O)CN1C(=O)[C@@H]1CCCN1C(=O)[C@H](CCCNC(=N)N)NC(=O)[C@H](N)CCCNC(=N)N)C(=O)N2CC(=O)N[C@@H](CCCNC(=N)N)C(=O)O | 7.4

Okay, next one:
Data request, read-out pD2, for COc1ccc(C[C@@H](CN[C@@H](CCCN=C(N)N)C(=O)O)NC(=O)[C@@H]2CCCN2C(=O)[C@H](CO)NC(=O)[C@H](Cc2cccs2)NC(=O)CNC(=O)[C@@H]2C[C@@H](O)CN2C(=O)[C@@H]2CCCN2C(=O)[C@@H](N)CCCN=C(N)N)cc1 (HELM PEPTIDE1{R.P.[Hyp].G.[O=C([C@H](Cc1cccs1)N[*:1])[*:2]].S.P.[COc1ccc(C[C@@H](CN[C@@H](CCCN=C(N)N)C(=O)O)N[*:1])cc1]}$$$$V2.0)
7.1

###

Biological target: B2 bradykinin receptor (Homo sapiens, UniProt P30411)
Sequence (P30411 whole entry): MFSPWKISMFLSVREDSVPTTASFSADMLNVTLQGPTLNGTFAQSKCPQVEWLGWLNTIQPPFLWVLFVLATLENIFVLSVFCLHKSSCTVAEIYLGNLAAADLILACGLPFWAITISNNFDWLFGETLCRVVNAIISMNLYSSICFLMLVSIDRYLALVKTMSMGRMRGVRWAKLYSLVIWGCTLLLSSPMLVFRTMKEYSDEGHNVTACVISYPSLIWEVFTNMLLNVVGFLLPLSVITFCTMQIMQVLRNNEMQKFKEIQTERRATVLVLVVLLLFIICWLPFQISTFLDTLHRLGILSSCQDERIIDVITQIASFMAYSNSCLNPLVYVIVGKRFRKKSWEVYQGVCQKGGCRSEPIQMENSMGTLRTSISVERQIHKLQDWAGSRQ
Assay: Binding affinity towards human cloned Bradykinin receptor B2 expressed in CHO cells by [3H]bradykinin displacement.
Type: cell-based
Details: cho
quantity: pKi
One number for each entry, as −log10 of the molar value.

Known pKi results, listed for orientation:
• NC(N)=NCCC[C@@H](N)C(=O)N[C@@H](CCCN=C(N)N)C(=O)N1CCC[C@H]1C(=O)N1C[C@H](O)C[C@H]1C(=O)NCC(=O)N[C@@H](Cc1cccs1)C(=O)N[C@@H](CO)C(=O)NC1N=C(c2ccccc2)c2ccccc2N(CC(=O)N[C@@H](CCCN=C(N)N)C(=O)O)C1=O (stereo in doubt; 35) = 5.98
• NC(N)=NCCC[C@@H](N)C(=O)N[C@@H](CCCN=C(N)N)C(=O)N1CCC[C@H]1C(=O)N1CC(O)C[C@H]1C(=O)NCC(=O)N[C@@H](Cc1cccs1)C(=O)N[C@@H](CO)C(=O)N[C@@H]1CCc2cccc3c2N(C1=O)[C@@H](C(=O)N[C@H](CCCN=C(N)N)C(=O)O)C3 (some centres undefined) = 6.85
• NC(N)=NCCC[C@@H](N)C(=O)N[C@@H](CCCN=C(N)N)C(=O)N1CCC[C@H]1C(=O)N1CC(O)C[C@H]1C(=O)NCC(=O)N[C@@H](Cc1cccs1)C(=O)N[C@@H](CO)C(=O)N[C@H]1CCc2cccc3c2N(C1=O)[C@@H](C(=O)N[C@H](CCCN=C(N)N)C(=O)O)C3 (some centres undefined) = 6.80

Okay, next one:
Data request, read-out pKi, for NC(N)=NCCC[C@@H](N)C(=O)N[C@@H](CCCN=C(N)N)C(=O)N1CCC[C@H]1C(=O)N1C[C@H](O)C[C@H]1C(=O)NCC(=O)N[C@@H](Cc1cccs1)C(=O)N[C@@H](CO)C(=O)NC1N=C(c2ccccc2)c2ccccc2N(CC(=O)N[C@@H](CCCN=C(N)N)C(=O)O)C1=O (stereo in doubt; 34)
7.07

###

Please respond with reported pKi for every item in the list.
molecular target: B2 bradykinin receptor (Homo sapiens); test: Binding affinity towards human cloned Bradykinin receptor B2 expressed in CHO cells by [3H]bradykinin displacement.; type: cell-based
Numbers only, as −log10 of the molar value.

Known pKi results, listed for orientation:
- NC(N)=NCCC[C@@H](N)C(=O)N[C@@H](CCCN=C(N)N)C(=O)N1CCC[C@H]1C(=O)N1CC(O)C[C@H]1C(=O)NCC(=O)N[C@@H](Cc1cccs1)C(=O)N[C@@H](CO)C(=O)N[C@@H]1CCN([C@@H](Cc2ccccc2)C(=O)N[C@@H](CCCN=C(N)N)C(=O)O)C1=O (some centres undefined): 5.68
- N=C(N)NCCC[C@@H](N)C(=O)N[C@@H](CCCNC(=N)N)C(=O)N1CCC[C@H]1C(=O)N1C[C@H](O)C[C@H]1C(=O)NCC(=O)N[C@@H](Cc1cccs1)C(=O)N[C@@H](CO)C(=O)N[C@@H]1COc2ccccc2N(CC(=O)N[C@@H](CCCNC(=N)N)C(=O)O)C1=O: 8.60
- NC(N)=NCCC[C@@H](N)C(=O)N[C@@H](CCCN=C(N)N)C(=O)N1CCC[C@H]1C(=O)N1CC(O)C[C@H]1C(=O)NCC(=O)N[C@@H](Cc1cccs1)C(=O)N[C@@H](CO)C(=O)N[C@]1(Cc2ccccc2)C(=O)C(Cc2ccccc2)N(CC(=O)N[C@@H](CCCN=C(N)N)C(=O)O)C1=O (some centres undefined): 7.85

Okay, next one:
Data request, read-out pKi, for NC(N)=NCCC[C@@H](N)C(=O)N[C@@H](CCCN=C(N)N)C(=O)N1CCC[C@H]1C(=O)N1CC(O)C[C@H]1C(=O)NCC(=O)N[C@@H](Cc1cccs1)C(=O)N[C@@H](CO)C(=O)N[C@@H]1CCCCN(CC(=O)N[C@@H](CCCN=C(N)N)C(=O)O)C1=O (some centres undefined)
6.11

Cited source: ChEMBL document CHEMBL1132436
